- target.under.test: human iGluR4 (Homo sapiens, UniProt P48058)
- Sequence (P48058 21-902): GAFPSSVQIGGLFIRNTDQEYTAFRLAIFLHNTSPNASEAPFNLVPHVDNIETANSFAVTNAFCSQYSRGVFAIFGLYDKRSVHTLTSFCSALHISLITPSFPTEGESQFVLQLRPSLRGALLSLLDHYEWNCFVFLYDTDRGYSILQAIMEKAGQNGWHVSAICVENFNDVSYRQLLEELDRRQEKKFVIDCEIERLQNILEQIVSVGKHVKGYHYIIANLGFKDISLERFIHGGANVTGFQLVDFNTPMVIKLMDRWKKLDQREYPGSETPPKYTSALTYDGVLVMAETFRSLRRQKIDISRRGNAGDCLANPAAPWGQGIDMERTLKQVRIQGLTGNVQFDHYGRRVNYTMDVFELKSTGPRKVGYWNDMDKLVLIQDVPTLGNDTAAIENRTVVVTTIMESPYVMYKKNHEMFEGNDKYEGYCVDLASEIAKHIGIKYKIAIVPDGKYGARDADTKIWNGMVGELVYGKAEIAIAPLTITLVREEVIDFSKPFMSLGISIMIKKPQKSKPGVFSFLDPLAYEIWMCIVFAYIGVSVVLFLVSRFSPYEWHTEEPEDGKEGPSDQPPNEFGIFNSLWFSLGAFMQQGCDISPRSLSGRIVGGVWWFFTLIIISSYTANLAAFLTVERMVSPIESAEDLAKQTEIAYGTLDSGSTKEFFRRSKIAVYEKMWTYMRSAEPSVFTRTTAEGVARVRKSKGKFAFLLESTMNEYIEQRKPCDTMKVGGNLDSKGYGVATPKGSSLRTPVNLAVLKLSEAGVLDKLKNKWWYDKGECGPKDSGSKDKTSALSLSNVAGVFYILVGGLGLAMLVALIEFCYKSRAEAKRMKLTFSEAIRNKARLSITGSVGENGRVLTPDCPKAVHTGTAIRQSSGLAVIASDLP
- experiment.description: Whole-cell voltage clamp potentiation of glutamate-evoked current in HEK293 cells stably expressing human iGluR4
- condition: whole-cell voltage clamp at −60 mV, potentiation of current evoked by 1 mM glutamate, Hill equation fit
This listing pairs compounds with measured EC50.
Note: unit nM is implicit; provide only the numeric part.

COc1cc(C(=O)O)ccc1-c1ccc(-c2ccccc2NS(=O)(=O)C(C)C)cc1 977

Okay, next one:
Challenge: Given the compound `CC(C)S(=O)(=O)Nc1ccsc1-c1ccc(-c2cc(F)c(O)c(F)c2C#N)cc1` , write its reported EC50.
Response given: 151
